- system.name: UniProt:P52333
- Sequence (P52333 whole entry): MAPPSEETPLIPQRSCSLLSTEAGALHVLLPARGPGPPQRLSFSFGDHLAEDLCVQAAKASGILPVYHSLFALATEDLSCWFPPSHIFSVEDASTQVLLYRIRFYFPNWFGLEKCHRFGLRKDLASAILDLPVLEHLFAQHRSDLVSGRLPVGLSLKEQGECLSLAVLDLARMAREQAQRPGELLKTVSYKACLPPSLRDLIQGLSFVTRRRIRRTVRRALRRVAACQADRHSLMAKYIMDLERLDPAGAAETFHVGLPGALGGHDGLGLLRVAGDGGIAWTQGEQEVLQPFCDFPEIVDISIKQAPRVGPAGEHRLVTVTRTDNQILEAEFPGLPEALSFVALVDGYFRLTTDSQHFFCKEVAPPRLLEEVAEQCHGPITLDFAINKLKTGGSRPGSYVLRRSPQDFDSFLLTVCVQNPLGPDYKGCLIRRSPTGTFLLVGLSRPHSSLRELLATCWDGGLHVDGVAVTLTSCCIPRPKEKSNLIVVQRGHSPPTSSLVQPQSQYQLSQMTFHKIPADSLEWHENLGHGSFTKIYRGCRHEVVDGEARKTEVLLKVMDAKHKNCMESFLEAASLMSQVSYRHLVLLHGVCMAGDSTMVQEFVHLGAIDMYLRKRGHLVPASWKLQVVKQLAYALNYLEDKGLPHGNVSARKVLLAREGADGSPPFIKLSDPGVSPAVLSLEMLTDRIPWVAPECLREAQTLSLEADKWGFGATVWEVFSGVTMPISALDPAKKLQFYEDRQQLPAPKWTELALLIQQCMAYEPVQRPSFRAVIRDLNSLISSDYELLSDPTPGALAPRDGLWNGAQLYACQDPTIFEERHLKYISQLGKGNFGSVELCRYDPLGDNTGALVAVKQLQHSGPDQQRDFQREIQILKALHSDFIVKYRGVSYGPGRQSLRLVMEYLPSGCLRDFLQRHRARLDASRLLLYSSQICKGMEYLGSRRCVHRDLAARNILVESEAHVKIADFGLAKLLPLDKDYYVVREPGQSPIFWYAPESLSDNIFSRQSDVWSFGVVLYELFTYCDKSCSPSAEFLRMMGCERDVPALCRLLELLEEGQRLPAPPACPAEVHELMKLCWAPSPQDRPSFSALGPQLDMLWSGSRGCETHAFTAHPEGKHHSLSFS
- test.protocol: Inhibition of a panel of kinases, in vitro HotSpot kinase assay: JAK3
- Type: biochemical
- condition: D-compounds panel data; 1 μM ATP; read-out: IC50 JAK3
parameter: IC50

Solved entries:
compound	observed.result
Cn1cc(Nc2nc(N3CCC[C@@H]4[C@H]3CCN4C(=O)c3ccc(C4CC4)cc3)cnc2C(N)=O)cn1 [Example D-44]	1000 to 10000 nM
C[C@@H]1[C@H](NC(=O)c2ccc(C(C)(C)O)nc2)CCCN1c1cnc(C(N)=O)c(Nc2cnn(C)c2)n1 [Example D-40]	100 to 1000 nM
CN(C)C(=O)N[C@H]1CCCN(c2cnc(C(N)=O)c(Nc3ccc(C4(C)CCN(C5CCCC5)CC4)cc3)n2)[C@@H]1CO [Example D-61]	> 10000 nM
C[C@@H]1[C@H](NC(=O)N(C)C)CCCN1c1cnc(C(N)=O)c(Nc2ccc(N3CCC(F)(F)CC3)cc2)n1 [Example D-306]	1000 to 10000 nM
Cc1cc(Nc2nc(N3CCC[C@@H](NC(=O)N(C)C)[C@H]3CO)cnc2C(N)=O)sn1 [Example D-67]	1000 to 10000 nM
C[C@@H]1[C@H](NC(=O)c2ccc(C3CC3)cc2F)CCCN1c1cnc(C(N)=O)c(Nc2cnn(C)c2)c1 [Example D-117]	1000 to 10000 nM
C[C@@H]1[C@H](NC(=O)c2ccc(OC(F)(F)F)cc2)CCCN1c1cnc(C(N)=O)c(Nc2cnn(C)c2)n1 [Example D-95]	1000 to 10000 nM
C[C@@H]1[C@H](NC(=O)c2cc3c(n2C)CC(C)(C)C3)CCCN1c1cnc(C(N)=O)c(Nc2cnn(C)c2)n1 [Example D-19]	100 to 1000 nM
C[C@@H]1[C@H](NC(=O)c2ccc(C3CC3)cc2)CCCN1c1cnc(C(N)=O)c(Nc2cn(C)nc2C(F)(F)F)n1 [Example D-278]	> 10000 nM

Now for the compound whose IC50 we want.
Specify measured IC50 for C[C@@H]1[C@H](N2CCN(C)C2=O)CCCN1c1cnc(C(N)=O)c(Nc2ccc(C3(C)CCN(C4CC4)CC3)cc2)n1 [Example D-38] .
10 to 100 nM

---

Recorded measurements of IC50, one per entry
- system.name: ITK (Homo sapiens)
- test.protocol: Inhibition of a panel of kinases, in vitro HotSpot kinase assay: ITK
- Type: biochemical
- condition: D-compounds panel data; 1 μM ATP

Solved entries:
compound	IC50
C[C@@H]1[C@H](NC(=O)c2cc3c(n2C)CC(C)(C)C3)CCCN1c1cnc(C(N)=O)c(Nc2cnn(C)c2)n1 [Example D-19]	0.1 to 1 µM
Cn1cc(Nc2nc(N3C[C@H](CO)C[C@H](NC(=O)c4ccc(C5CC5)cc4)C3)cnc2C(N)=O)cn1 (racemic) [Example D-43]	0.1 to 1 µM
CC(C)c1ccc(C(=O)N[C@@H]2CCCN(c3cnc(C(N)=O)c(Nc4cnn(C)c4)n3)C2)cc1 [Example D-222]	> 10 µM
C[C@@H]1[C@H](NC(=O)c2ccc(C3CC3)cc2F)CCCN1c1cnc(C(N)=O)c(Nc2ccc(CN3CCN(C)CC3)cc2)c1 [Example D-125]	1 to 10 µM
C[C@@H]1[C@H](NC(=O)c2ccc(C3CC3)cc2)CCCN1c1cnc(C(N)=O)c(Nc2cnn(C3CCN(C)CC3)c2)n1 [Example D-185]	0.1 to 1 µM

Specify measured IC50 for CN(C)C(=O)N[C@H]1CCCN(c2cnc(C(N)=O)c(Nc3ccc(C4(C)CCN(C5CCCC5)CC4)cc3)n2)[C@H]1CO [Example D-59] .
1 to 10 µM

---

Recorded measurements of IC50, one per entry
- system.name: ITK (Homo sapiens)
- Sequence (Q08881 1-620): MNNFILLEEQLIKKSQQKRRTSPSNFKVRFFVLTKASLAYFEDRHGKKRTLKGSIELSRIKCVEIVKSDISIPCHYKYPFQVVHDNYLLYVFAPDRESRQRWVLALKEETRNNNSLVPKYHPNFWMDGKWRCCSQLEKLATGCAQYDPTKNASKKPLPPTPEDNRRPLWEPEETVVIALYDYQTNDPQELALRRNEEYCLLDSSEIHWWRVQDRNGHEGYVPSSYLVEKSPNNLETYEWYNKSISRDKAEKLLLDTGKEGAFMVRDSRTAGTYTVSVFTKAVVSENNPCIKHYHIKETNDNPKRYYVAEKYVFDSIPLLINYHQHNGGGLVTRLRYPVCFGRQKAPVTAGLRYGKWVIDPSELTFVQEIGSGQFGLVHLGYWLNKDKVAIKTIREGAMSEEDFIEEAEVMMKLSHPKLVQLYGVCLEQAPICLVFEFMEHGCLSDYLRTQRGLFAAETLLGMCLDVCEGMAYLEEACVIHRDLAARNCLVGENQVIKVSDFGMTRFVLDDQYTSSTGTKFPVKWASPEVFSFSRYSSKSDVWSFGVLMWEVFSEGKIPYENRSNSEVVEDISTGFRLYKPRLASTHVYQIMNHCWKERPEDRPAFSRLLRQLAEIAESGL
- test.protocol: Inhibition of a panel of kinases, in vitro HotSpot kinase assay: ITK
- Assay type: biochemical
- condition: E compounds, Table 17

mol	parameter	observed.result
C=CC(=O)N[C@@H]1CCCN(c2nnc(C(N)=O)c(Nc3ccc(Cl)cc3)n2)[C@@H]1C	IC50	0.01 to 0.1 µM

Specify measured IC50 for C=CC(=O)N1CCC[C@@H](N(C(=O)C=C)c2nnc(C(N)=O)c(Nc3ccc(C4CC4)cc3)n2)C1 .
1 to 10 µM

Specify measured IC50 for C=CC(=O)N1CCC[C@@H](Nc2nnc(C(N)=O)c(Nc3ccc(C4(C)CCN(C5CC5)CC4)cc3)n2)[C@H]1C .
≤ 0.01 µM

Specify measured IC50 for C=CC(=O)NC[C@@H]1CCCN1c1nnc(C(N)=O)c(Nc2ccc(C(C)C)cc2)n1 .
1 to 10 µM

Specify measured IC50 for Cc1cc(Nc2nc(N(C)[C@@H]3CCN(C(=O)c4ccc(C(O)(C(F)(F)F)C(F)(F)F)cc4)C3)nnc2C(N)=O)sn1 .
0.1 to 1 µM

---

- system.name: ITK (Homo sapiens)
- test.protocol: Inhibition of a panel of kinases, in vitro HotSpot kinase assay: ITK
- Type: biochemical
- condition: E compounds, Table 17
parameter: IC50

Solved entries:
mol	system.name	observed.result
C[C@@H]1[C@H](NC(=O)c2ccc(C3CC3)cc2)CCCN1c1cnc(C(N)=O)c(Nc2ccc(N3CCN(C)C[C@@H]3C)cc2)n1	ITK (Homo sapiens)	10 to 100 nM
C=CC(=O)N1CCC[C@@H](Nc2nnc(C(N)=O)c(Nc3cccc(C(=O)N4CCCCC4)c3)n2)C1	ITK (Homo sapiens)	100 to 1000 nM
CCC(O)(CC)c1ccc(C(=O)N[C@@H]2CCCN(c3cnc(C(N)=O)c(Nc4cnn(C)c4)n3)[C@@H]2C)cc1	ITK (Homo sapiens)	100 to 1000 nM
CN(c1cnc(C(N)=O)c(Nc2ccc(C3CCN(C4CC4)CC3)cc2)n1)[C@@H]1CCN(C(=O)CCCl)C1	ITK (Homo sapiens)	≤ 10 nM
C=CC(=O)N1CC[C@@H](N(C)c2cnc(C(N)=O)c(Nc3ccc(C(O)(C(F)(F)F)C(F)(F)F)cc3)n2)C1	ITK (Homo sapiens)	≤ 10 nM

Give measured IC50 for C=CC(=O)N1CC[C@@H](N(C)c2cnc(C(N)=O)c(Nc3cccc(-c4nccn4C)c3)n2)C1 (ITK (Homo sapiens)).
10 to 100 nM

Give measured IC50 for C=CC(=O)N1CCC[C@@H](N(C)c2cnc(C(N)=O)c(Nc3ccc(C(C)C)cc3)n2)C1 (ITK (Homo sapiens)).
10 to 100 nM

Give measured IC50 for C=CC(=O)N1CCC[C@@H](Nc2nnc(C(N)=O)c(Nc3ccc(Cl)cc3)n2)[C@H]1C (ITK (Homo sapiens)).
≤ 10 nM

---

Recorded measurements of IC50, one per entry
- system.name: LCK (Homo sapiens)
- Sequence (P06239 whole entry): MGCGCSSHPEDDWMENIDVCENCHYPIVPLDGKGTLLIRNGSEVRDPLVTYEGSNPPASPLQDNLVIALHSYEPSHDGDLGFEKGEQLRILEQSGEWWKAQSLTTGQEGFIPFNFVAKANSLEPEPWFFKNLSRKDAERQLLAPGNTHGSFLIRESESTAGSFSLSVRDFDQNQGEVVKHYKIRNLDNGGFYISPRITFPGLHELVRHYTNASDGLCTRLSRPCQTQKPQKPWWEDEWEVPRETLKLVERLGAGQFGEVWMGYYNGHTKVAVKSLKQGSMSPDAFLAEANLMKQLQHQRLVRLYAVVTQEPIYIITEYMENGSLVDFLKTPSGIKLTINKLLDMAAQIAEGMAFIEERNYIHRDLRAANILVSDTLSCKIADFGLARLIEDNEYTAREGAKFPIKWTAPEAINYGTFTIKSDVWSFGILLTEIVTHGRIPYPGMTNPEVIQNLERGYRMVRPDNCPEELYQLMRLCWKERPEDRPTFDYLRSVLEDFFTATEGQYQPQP
- test.protocol: Inhibition of a panel of kinases, in vitro HotSpot kinase assay: LCK
- Assay type: biochemical
- condition: Table 10, Formula A-I; 1 μM ATP; read-out: LCK (IC50)

mol	observed.result
CC1(c2ccc(Nc3nc(N4CCC[C@@H](NC(=O)c5ccccc5)C4)cnc3C(N)=O)cc2)CCN(C2CC2)CC1	< 100 nM
COc1ccc(NC(=O)N[C@@H]2CCCN(c3cnc(C(N)=O)c(Nc4cc(C)ns4)n3)C2)cc1	100 to 1000 nM

Specify measured IC50 for Cc1cccc(C(=O)N[C@@H]2CCCN(c3cnc(C(N)=O)c(Nc4cc(C)ns4)n3)C2)c1 .
100 to 1000 nM

Specify measured IC50 for Cc1cc(Nc2nc(N3CCC[C@@H](NC(=O)c4ccc(N(C)C)cc4)C3)cnc2C(N)=O)sn1 .
> 10000 nM

Specify measured IC50 for Cc1cc(Nc2nc(N3CCC[C@@H](NC(=O)c4ccccc4)C3)cnc2C(N)=O)sn1 .
100 to 1000 nM

Specify measured IC50 for CN(C)C(=O)N[C@@H]1CCCN(c2cnc(C(N)=O)c(Nc3ccc4ncccc4c3)n2)C1 .
> 10000 nM
